System: Human immunodeficiency virus 1
PROTOCOL_DESCRIPTION: Antiviral activity in cells infected with wild-type HIV1 NL4-3 in presence of NHS
Format: functional
STATED_CONDITIONS: Human immunodeficiency virus 1, NL4-3; read-out: CIC95
ENDPOINT_NAME: IC95 (µM)
Output spec: scalar in µM, unitless text.

Some molecules with recorded IC95:
[[record]]
molecule = "NC(=O)C[C@H]1CC(C2=C(O)[C@](Cc3ccccc3)(C[C@H](O)[C@H](Cc3ccccc3)NC(=O)O[C@H]3CCOC3)N=C2)c2ccccc21 (stereo not given in full)"
target_entity = "Human immunodeficiency virus 1"
measured_number = 0.625

[[record]]
molecule = "O=C1N[C@@H]2c3ccccc3C(C3=C(O)[C@](Cc4ccccc4)(C[C@H](O)[C@H](Cc4ccccc4)NC(=O)O[C@H]4CCOC4)N=C3)C2O1 (stereo not given in full)"
target_entity = "Human immunodeficiency virus 1"
measured_number = 0.625

[[record]]
molecule = "CC(C)(C)NC(=O)[C@@H]1CN(Cc2cccnc2)CCN1C[C@@H](O)C[C@@H](Cc1ccccc1)C(=O)N[C@H]1c2ccccc2C[C@H]1O"
target_entity = "Human immunodeficiency virus 1"
measured_number = 0.05

[[record]]
molecule = "CC(C)(C)OC(=O)N[C@@H](Cc1ccccc1)[C@@H](O)C[C@]1(Cc2ccccc2)N=CC(C2c3ccccc3[C@H]3NC(=O)OC23)=C1O (stereo not given in full)"
target_entity = "Human immunodeficiency virus 1"
measured_number = 0.625


Sample O=C(N[C@@H](Cc1ccccc1)[C@@H](O)C[C@]1(Cc2ccccc2)N=CC([C@H]2c3ccccc3C[C@H]2O)=C1O)O[C@H]1CCOC1 , system: Human immunodeficiency virus 1. Its IC95 is 0.156
